Measured values drawn from ChEMBL document CHEMBL3286109 for this set.

EXPERIMENT: Inhibition of HIV1 HXB2 gp41-mediated cell-cell fusion between viral envelope-expressing human HL2/3 cells to human TZM-bl cells by luciferase reporter assay
Assay type: cell-based
PROTOCOL CONDITIONS: Human immunodeficiency virus 1, HXB2, TZM-bl
pEC50: −log10 of the molar value.
# label = True if pEC50 >= 5 else False

Determine whether measured pEC50 meets or exceeds 5 for "O=C(O)c1cccc(Cn2cnc3cc(-c4ccc5cc[nH]c5c4)ccc32)c1"
False

Determine whether measured pEC50 meets or exceeds 5 for "O=C(O)c1cccc(Cn2ccc3ccc(-c4ccc5ccn(Cc6ccc(COc7ccccc7)cc6)c5c4)cc32)c1"
False

Determine whether measured pEC50 meets or exceeds 5 for "COc1ccc(Cn2ccc3ccc(-c4ccc5c(ccn5Cc5cccc(C(=O)O)c5)c4)cc32)cc1"
True

Determine whether measured pEC50 meets or exceeds 5 for "O=C(O)c1cccc(Cn2ccc3ccc(-c4ccc5cc[nH]c5c4)cc32)c1"
False

----------
EXPERIMENT: Cytotoxicity against human TZM-bl cells assessed as inhibition of cell viability by resazurin assay
PROTOCOL CONDITIONS: read-out: TC50 (the source's name)
MEASURED PARAMETER: CC50 (µM)
One number for each entry, in µM.

Examples with answers:
In [3]: df
Out[3]:
                                 cpd_smiles  value_measured
0  O=C(O)c1cccc(Cn2ccc3ccc(-c4cccc(O)c4)cc32)c1             100
1  O=C(O)c1cccc(Cn2ccc3cc(-c4ccc5cc(Cl)ccc5n4)ccc32)c1             100
2  COc1cc(Cn2ccc3ccc(-c4ccc5ccn(Cc6cccc(C(=O)O)c6)c5c4)cc32)cc(OC)c1              93

Any idea what its CC50 is? The molecule is "COc1cccc(Cn2ccc3ccc(-c4ccc5ccn(Cc6cccc(C(=O)O)c6)c5c4)cc32)c1"
71

----------
EXPERIMENT: Inhibition of HIV1 HXB2 gp41-mediated cell-cell fusion between viral envelope-expressing human HL2/3 cells to human TZM-bl cells by luciferase reporter assay
Format: cell-based
PROTOCOL CONDITIONS: Human immunodeficiency virus 1, HXB2, TZM-bl
MEASURED PARAMETER: pEC50
Numbers only, as −log10 of the molar value.

Examples with answers:
>>> df
                                 cpd_smiles  value_measured
0  COC(=O)c1cccc(Cc2c[nH]c3ccc(-c4ccc5[nH]cc(Cc6cccc(C(=O)O)c6)c5c4)cc23)c1            5.70
1  O=C(O)c1cccc(Cn2ccc3ccc(-c4ccc5ccn(Cc6ccccc6)c5c4)cc32)c1            5.70
2  COc1cccc(Cn2ccc3ccc(-c4ccc5c(Cc6cccc(C(=O)O)c6)c[nH]c5c4)cc32)c1            5.15
3  O=C(O)c1cccc(Cn2ccc3ccc(-c4ccc5ccn(Cc6ccc(C(F)(F)F)cc6)c5c4)cc32)c1            5.70

Any idea what its pEC50 is? The compound is "O=C(O)c1cccc(Cn2ccc3cc(-c4ccc5ccn(Cc6cccc(C(=O)O)c6)c5c4)ccc32)c1"
5.70

----------
EXPERIMENT: Cytotoxicity against human MAGI-CCR5 cells assessed as inhibition of cell viability by MTS assay
Type: cell-based
PROTOCOL CONDITIONS: read-out: TC50 (the source's name)
MEASURED PARAMETER: CC50

>>> df
                                 cpd_smiles  value_measured
0  O=C(O)c1cccc(Cn2ccc3ccc(-c4ccc5cc(Cl)ccc5n4)cc32)c1        > 100 µM
1  O=C(O)c1cccc(Cn2ccc3ccc(-c4ccc5cc[nH]c5c4)cc32)c1         > 50 µM
2  O=C(O)c1cccc(Cn2cnc3cc(-c4ccc5cc[nH]c5c4)ccc32)c1        > 100 µM
3  O=C(O)c1cccc(Cn2ccc3ccc(-c4ccc5ccn(Cc6ccc(COc7ccccc7)cc6)c5c4)cc32)c1        > 100 µM

Any idea what its CC50 is? The molecule is "O=C(O)c1cccc(Cn2ccc3ccc(-c4ccc5ccn(Cc6ccccc6)c5c4)cc32)c1"
> 100 µM
